molecular target: receptor IL-1R1 (UniProt P14778 18-569, Source and limits not given; taken as the recombinant extracellular domain (UniProt topological domain 18-336) by convention. Human inferred from the human IL-10Ra used in the same BLI assay. Likely); assay: BLI; control receptor IL-1R1 in place of IL-10Ra; NK20a at various concentrations; details: both partners purified
Sequence (P14778 18-569): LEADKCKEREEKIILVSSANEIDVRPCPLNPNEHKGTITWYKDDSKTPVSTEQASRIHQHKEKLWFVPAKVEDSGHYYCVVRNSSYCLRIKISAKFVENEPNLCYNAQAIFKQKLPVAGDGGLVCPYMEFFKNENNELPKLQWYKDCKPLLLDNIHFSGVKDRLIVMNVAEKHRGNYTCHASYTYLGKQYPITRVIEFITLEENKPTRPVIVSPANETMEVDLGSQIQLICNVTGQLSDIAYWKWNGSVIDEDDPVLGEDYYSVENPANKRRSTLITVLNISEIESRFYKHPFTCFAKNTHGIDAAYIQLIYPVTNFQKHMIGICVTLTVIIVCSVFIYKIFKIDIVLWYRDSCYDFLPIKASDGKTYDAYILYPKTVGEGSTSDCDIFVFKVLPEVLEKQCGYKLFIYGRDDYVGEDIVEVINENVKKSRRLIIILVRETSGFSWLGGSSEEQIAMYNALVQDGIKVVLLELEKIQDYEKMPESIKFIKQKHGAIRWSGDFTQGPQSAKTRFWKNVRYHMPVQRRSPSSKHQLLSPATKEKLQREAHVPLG
pKd: −log10 of the molar value.

Binder	pKd
NMLRNLRNAFSRVKTFFQMK (NK20 with two Asp replaced by Asn; stretch of human IL-10; source: synthetic peptide (GeneMark, GMbiolab Co., solid-phase)) [NK20a peptide]	1.55
